Measurement Target: SARS-CoV-2 3CLpro (Severe acute respiratory syndrome coronavirus 2, UniProt P0DTD1)
Procedure Details: biochemical
Type: biochemical
Set-up: unit not given here
Conditions: sheet LOPAC_screen_w_protease; LOPAC1280 primary screen at 5 µM, with protease; mean of the two replicates
Property Name: mean
// response body must contain only the number

Compound	Measurement Target	mean
CC1=NN=C(c2ccc(N)cc2)c2cc3c(cc2C1)OCO3.Cl [GYKI 52466 hydrochloride]	SARS-CoV-2 3CLpro (Severe acute respiratory syndrome coronavirus 2, UniProt P0DTD1)	0.5948
CCCCCCCCCC(=O)NC(CN1CCOCC1)[C@H](O)c1ccccc1.Cl (mixture of isomers)	SARS-CoV-2 3CLpro (Severe acute respiratory syndrome coronavirus 2, UniProt P0DTD1)	0.5952

Hey, SARS-CoV-2 3CLpro (Severe acute respiratory syndrome coronavirus 2, UniProt P0DTD1) data for COc1[nH]c2ccc(F)cc2c1C(=O)OCC1CCN(CCNS(C)(=O)=O)CC1.NS(=O)(=O)O [GR 125487 sulfamate salt] : mean came out at 0.6171

Hey, SARS-CoV-2 3CLpro (Severe acute respiratory syndrome coronavirus 2, UniProt P0DTD1) data for Nc1ncnc2c1c(-c1ccc(Oc3ccccc3)cc1)cn2C1CCCC1 : mean came out at 0.6123

----------
Measurement Target: SARS-CoV-2 3CLpro (Severe acute respiratory syndrome coronavirus 2, UniProt P0DTD1)
Procedure Details: biochemical
Format: biochemical
Conditions: with 0.01% Triton X-100; mean ± SD of triplicate; 4 h, 30 °C; read-out: A) EC50 with Triton X-100
pEC50: −log10 of the molar value.
Documented pEC50 across a set of compounds

Examples with answers:
Compound	Measurement Target	pEC50
Oc1cc(O)c2c(c1)O[C@H](c1ccc(O)c(O)c1)[C@@H](O)C2 [(+)-Catechin]	SARS-CoV-2 3CLpro (Severe acute respiratory syndrome coronavirus 2, UniProt P0DTD1)	< 4.70
CC(=O)[C@]1(O)Cc2c(O)c3c(c(O)c2[C@@H](O[C@H]2C[C@H](N)[C@H](O)[C@H](C)O2)C1)C(=O)c1ccccc1C3=O	SARS-CoV-2 3CLpro (Severe acute respiratory syndrome coronavirus 2, UniProt P0DTD1)	< 4.70
O=C1C(SCCO)=C(SCCO)C(=O)c2ccccc21 [NSC 95397, reference compound]	SARS-CoV-2 3CLpro (Severe acute respiratory syndrome coronavirus 2, UniProt P0DTD1)	< 4.70

The compound listed as CCOC(=O)[C@]12CC1/C(=N\O)c1ccccc1O2 (mixture of isomers) [CPCCOEt, reference compound] shows pEC50 equal to < 4.70

The compound listed as C=CCN1CCc2c(cc(O)c(O)c2Br)C(c2ccccc2)C1 (stereo not drawn) [R(+)-6-Bromo-APB] shows pEC50 equal to < 4.70

The compound listed as CN1CCc2c(cc(O)c(O)c2Cl)C(c2cccc(Cl)c2)C1 (centres unmarked) shows pEC50 equal to < 4.70

The compound listed as Oc1ccc(C2CNCCc3c2cc(O)c(O)c3Cl)cc1 (centres unmarked) shows pEC50 equal to < 4.70

The compound listed as O=C(/C=C/c1ccc(O)c(O)c1)OCCc1ccccc1 [Caffeic acid phenethyl ester, reference compound] shows pEC50 equal to < 4.70

----------
Documented inhibition at 5 µM across a set of compounds
Measurement Target: SARS-CoV-2 3CLpro (Severe acute respiratory syndrome coronavirus 2, UniProt P0DTD1)
Procedure Details: biochemical
Format: biochemical
Conditions: 4 h, LOPAC1280 primary screen with protease, 5 µM compound, replicate 2; read-out: Replicate_2 (LOPAC_screen_w_protease)
Counter-ions that a name gives are not always drawn.
Form field: result (number plus unit)

Examples with answers:
Compound	inhibition at 5 µM
COc1ccc(CC(C)NCC(O)c2ccc(O)c(NC=O)c2)cc1 (centres unmarked)	1.19%
CC(C)C[C@H](NC(=O)[C@H](O)[C@H](N)Cc1ccccc1)C(=O)O [Epibestatin hydrochloride]	2.3%
C[N+]1(C)[C@@H]2CC[C@H]1C[C@@H](OC(=O)C(CO)c1ccccc1)C2 (some centres unmarked) [Atropine methyl bromide]	1.25%
CN(C)CCOC(c1ccccc1)c1ccccc1 [Diphenhydramine hydrochloride]	1.54%
COc1cc2c(cc1OC)-c1c/c(=N\c3c(C)cc(C)cc3C)n(C)c(=O)n1CC2 [Trequinsin hydrochloride]	2%
CC(C)C(=O)c1c(C(C)C)nn2ccccc12	1.76%
O=P(O)(O)C(Cl)(Cl)P(=O)(O)O	1.36%

Next compound, inhibition at 5 µM to be filled in.
The compound listed as OCCN1CCN(CCCN2c3ccccc3Sc3ccc(C(F)(F)F)cc32)CC1 [Fluphenazine dihydrochloride] shows inhibition at 5 µM equal to -0.136%

----------
Measurement Target: SARS-CoV-2 3CLpro (Severe acute respiratory syndrome coronavirus 2, UniProt P0DTD1)
Procedure Details: biochemical
Type: biochemical
Set-up: unit not given here
Conditions: sheet LOPAC_screen_w_protease; LOPAC1280 primary screen at 5 µM, with protease; replicate 2
Documented Replicate_2 across a set of molecules
// response body must contain only the number

Examples with answers:
Molecule	Test Result
CC1=C(CC(=O)O)c2cc(F)ccc2/C1=C\c1ccc(S(C)(=O)=O)cc1	-3.192
COc1[nH]c2ccc(F)cc2c1C(=O)OCC1CCN(CCNS(C)(=O)=O)CC1.NS(=O)(=O)O [GR 125487 sulfamate salt]	-0.7681

The molecule listed as CC(=O)SCC[N+](C)(C)C.[Cl-] [Acetylthiocholine chloride] shows Replicate_2 equal to -0.3662

The molecule listed as O=C(O)/C=C\C(=O)O.c1cnc(N2CCN(Cc3ccc4c(c3)OCO4)CC2)nc1 [Piribedil maleate] shows Replicate_2 equal to 0.9256

The molecule listed as Cl.O=C(O)C1CCCN(CCC=C(c2ccccc2)c2ccccc2)C1 (stereo not shown) [SKF 89976A hydrochloride] shows Replicate_2 equal to -0.4841

----------
Documented Replicate_2 across a set of compounds
Measurement Target: SARS-CoV-2 3CLpro (Severe acute respiratory syndrome coronavirus 2)
Procedure Details: biochemical
Assay type: biochemical
Parameters: unit not given here
Conditions: sheet LOPAC_screen_w_protease; LOPAC1280 primary screen at 5 µM, with protease; replicate 2
// response body must contain only the number

Examples with answers:
Molecule Smiles	Replicate_2
NC(=O)COc1c(F)cc(SCCNS(=O)(=O)c2ccccc2)cc1F	-1.744
OC[C@H]1O[C@@H](n2cnc3c(NCCc4ccccc4)ncnc32)[C@H](O)[C@@H]1O	-0.5317
O=[N+]([O-])c1ccc(O[C@@H]2O[C@H](CO)[C@@H](O)[C@H](O)[C@H]2F)c([N+](=O)[O-])c1	-0.6983
O=C(c1cc(O)c(O)c([N+](=O)[O-])c1)c1ccccc1F	-0.7687

Next compound, Replicate_2 to be filled in.
The compound listed as COC(=O)c1c(-c2cc(OC)c(OC)c(OC)c2)c2ccc(OCc3ccccn3)cc2c(=O)n1-c1ccc(N)cc1.O=S(=O)(O)O shows Replicate_2 equal to 0.06128
